# GI50 listing for each entry below
Test system: M14 melanoma
ASSAY DETAILS: NCI tumour cell line growth inhibition, 48 h
QUANTITY MEASURED: GI50

# COMPOUND, REPORTED VALUE
records = [
    ("COc1ccc2nc(N/N=C(\\C)c3ccccn3)cc(C)c2c1", "0.212 µM"),
    ("O=C(CCCCCCSc1nc(-c2ccccc2)cc(-c2ccc(Cl)cc2)n1)NO", "1.95 µM"),
    ("COc1ccc(C(=O)/C(Br)=C/C(=O)O)cc1", "52.9 µM"),
    ("O=C(NNc1nc(Cl)nc(N2CCN(C(c3ccccc3)c3ccccc3)CC2)n1)c1ccccc1", "1.59 µM"),
    ("COc1ccc2cc(C(=O)/C=C/c3cc(OC)c(OC)c(OC)c3)ccc2c1", "6.52 µM"),
    ("O=C(CN1CCN(c2ncccn2)CC1)Nc1ccc(Cl)cc1C(=O)c1ccccc1Cl", "> 100 µM"),
    ("CN(C)c1cccc2c(S(=O)(=O)N[C@H]3CC[C@H]4[C@@H]5CCc6cc(O)ccc6[C@H]5CC[C@]34C)cccc12", "3.7 µM"),
    ("Cc1c2c(nn1-c1ccc(S(=O)(=O)NC(=S)Nc3ccccc3)cc1)-c1ccccc1CC2", "> 50 µM"),
    ("COc1ccc(-c2nn3ncccc3c2-c2ccnc(Nc3ccc(Cl)c(C(F)(F)F)c3)n2)cc1", "11.5 µM"),
    ("CNC(=O)c1cc(OC2CCC(NC(=O)Nc3ccc(Cl)c(C(F)(F)F)c3)CC2)ccn1 (stereo not given)", "5.47 µM"),
]
